Where do these numbers come from? They come from PubChem BioAssay (NCI).

Test system: HCC-2998 colon
ASSAY_REMARKS: NCI-60 one-dose screen, 48 h (100 = growth as untreated, 0 = no growth, -100 = all killed)
MEASUREMENT_CONTEXT: 10 µM unless noted
Compounds without any hit were thinned out: in the full panel of roughly 83,000, 20% have a hit.
Lab note: compare growth against 90%. Equal or greater, write Condition met. Smaller, write Condition not met.

Cc1cc(C)c(O)c(CNCCCCCCNCc2cc(C)cc(C)c2O)c1 : Condition not met
CSc1nc(=S)c2nc(SC)n(-c3ccccc3)c2[nH]1 : Condition met
CCn1cc(-c2[nH]c(=S)ncc2-c2ccc(Cl)cc2)c(-c2ccc(Br)cc2)n1 : Condition met
c1ccc(-c2n[nH]c(-c3ccccn3)n2)nc1 : Condition met

Now consider the entry below.
Determine whether measured growth meets or exceeds 90% for "CCOC(=O)COc1c(C)cc(SSc2cc(C)c(OCC(=O)OCC)c(C)c2)cc1C" Condition met

----------
Test system: CAKI-1 renal
ASSAY_REMARKS: NCI-60 one-dose screen, 48 h
MEASUREMENT_CONTEXT: 10 µM unless noted
This is part of a sample that, as a whole, favours compounds with a hit. Of some 83,000 tested, about 20% had one in any assay. The source made the active and inactive calls. Rule for the calls: active = growth percent below 10; inactive = the rest.
Bench note: report the call from active, inactive

C=C(C)[C@@H]1CC[C@]2(C(=O)NCCNCCNCCN)CC[C@]3(C)[C@H](CC[C@@H]4[C@@]5(C)CC[C@H](O)C(C)(C)[C@@H]5CC[C@]43C)[C@@H]12 : active
CCCCC(CCCCCC(CCCC)C1NC(C)Cc2cc(OC)c(OC)cc21)C1NC(C)Cc2cc(OC)c(OC)cc21 (configuration not stated) : active
CC[C@]12C=CCN3CC[C@@]4(c5ccc(OC)cc5N(C)[C@H]4[C@@](O)(C(=O)OC)[C@@H]1OC(=O)CCC(=O)N[C@H](Cc1c[nH]c4ccccc14)C(=O)OC)[C@@H]32 : active

Now consider the entry below.
Could you check what this test reported for "CSc1nc2sc3cc(Cl)c(Cl)cc3n2c(=N)c1C#N" ? inactive

----------
Tested on: SNB-75 CNS
ASSAY_REMARKS: NCI-60 one-dose screen, 48 h
MEASUREMENT_CONTEXT: 10 µM unless noted
This is part of a sample that, as a whole, favours compounds with a hit. Of some 83,000 tested, about 20% had one in any assay. Activity calls are given as the source filed them. How the source made its calls: active means growth percent below 10; inactive means the rest.
Bench note: report the call from class 1 = active, class 0 = inactive

Here's what some known entries look like.
C/C=C/C1OC23CCCCC2C(C#N)(C(=N)O3)C1(C#N)C#N (stereo not drawn) : class 0
CC(C)OC(=O)Nc1cc(F)ccc1F : class 0
O=C(CSc1nc2ccc([N+](=O)[O-])cc2[nH]1)Nc1ccc(F)c(Cl)c1 : class 0
COc1ccc(C(=O)CSc2nccc(Nc3ccc(C(=O)O)cc3)n2)cc1 : class 0
Cn1cc(-c2noc(C(=O)c3cn(C)c4ncccc34)n2)c2ccccc21 : class 0

Could you check what this test reported for O=C1/C(=C\c2cn(CC(O)CN3CCCCC3)c3ccccc23)c2ccccc2N1c1c(Cl)cccc1Cl (stereo not drawn) ? class 1

Could you check what this test reported for "CCOc1cc(/C=N\NC(=O)N/N=C/c2ccc(O)c(OCC)c2)ccc1O" ? class 1

Could you check what this test reported for Cc1ccc(S(=O)(=O)N/N=C2\CC3CCC2(C)C3(C)C)cc1 (stereo not drawn) ? class 0

Could you check what this test reported for Cc1ccc2c(c1)C(C)Cc1c(Cl)ncnc1N2C (stereo not drawn) ? class 0

Could you check what this test reported for "CC(C)C1=NOC(=O)C1=Cc1cn(-c2ccccc2)nc1-c1ccc(Br)cc1" ? class 0

----------
System: MCF7 breast
ASSAY_REMARKS: NCI-60 one-dose screen, 48 h
MEASUREMENT_CONTEXT: 10 µM unless noted
About 83,000 compounds went through this panel and 20% of them were active in at least one assay; those are over-represented in the sample as a whole. The source made the active and inactive calls. The calls were made as follows: active = growth percent below 10; inactive = the rest.
Bench note: report the call from active, inactive

CC1(C)[C@@H](NOCCCN)CC[C@]2(C)[C@H]3C(=O)C=C4[C@@H]5C[C@](C)(C(=O)O)CC[C@]5(C)CC[C@@]4(C)[C@]3(C)CC[C@@H]12 : active
N#C/C(C(=O)c1ccccc1)=C1/C(=O)Nc2ccc(Br)cc21 : inactive
COc1cc(C)cc2oc3oc(=N)c(C(=O)c4ccccc4)cc3c(=O)c12 : inactive
O=C1Nc2ccccc2/C1=C/C(=O)c1ccc(N2CCCCC2)cc1 : inactive
CC/C=C(\C)C(CCC)(CN=O)C(=O)OCC (centres undefined) : inactive

Could you check what this test reported for "Cc1nc(Cl)cc(N(c2cc(Cl)nc(C)n2)c2ncc(C(=O)Nc3c(C)cccc3Cl)s2)n1" ? inactive

Could you check what this test reported for "Nc1nc(Nc2ccccc2)c2ncn(Cc3cc4c(cc3Br)OCO4)c2n1" ? inactive

Could you check what this test reported for "Cc1ccc2c(n1)C(=O)C(Cl)=C(Nc1ccc(N3CCN(C)CC3)cc1)C2=O" ? active

----------
Test system: PC-3 prostate
ASSAY_REMARKS: NCI-60 one-dose screen, 48 h (100 = growth as untreated, 0 = no growth, -100 = all killed)
MEASUREMENT_CONTEXT: 10 µM unless noted
Compounds without any hit were thinned out: in the full panel of roughly 83,000, 20% have a hit.
ASSAY_METRIC: growth (%)
Record the value in %, omitting the unit from your answer.

Here are 8 compounds together with their reported answers.
C1=C[C@H]2O[C@@H]1c1ccc3[nH]ccc3c12 : 98
COc1ccc(/C=C(/C(=O)c2ccc(Cl)cc2)C(=O)C(F)(F)F)cc1 : 102
Clc1ccc(N2CCN(CCCN3CCN(c4cccc(Cl)c4)CC3)CC2)cc1 : 45.3
CCN(CCNc1ccc(C)c2sc3cc(Cl)ccc3c(=O)c12)CC(C)O (stereo unspecified) : 48.5
COc1ccc2c3ccnc(C(F)(F)F)c3n(CCCCN)c2c1 : 22.8
CCN(CC)CCCCCCNc1cccc2cc(Br)cnc12 : 54.2
COc1cc(NN=C(c2ccc(O)cc2)c2ccc(O)cc2)c([N+](=O)[O-])cc1[N+](=O)[O-] : 73.1
CCCC(NC(=O)OCc1ccccc1)C(=O)O (stereo unspecified) : 93.8

Need growth of "O=S(=O)(NCc1ccccc1)c1ncnc2nc[nH]c12" , thanks. 105

Need growth of "CC(C)OC(=O)Nc1cc(F)ccc1F" , thanks. 99.7

Need growth of COc1ccc2c(c1)C(C)Cc1c(Cl)nc(C)nc1N2C (stereo unspecified) , thanks. 14.8

----------
Tested on: OVCAR-4 ovarian
ASSAY_REMARKS: NCI-60 one-dose screen, 48 h (100 = growth as untreated, 0 = no growth, -100 = all killed)
MEASUREMENT_CONTEXT: 10 µM
The panel holds about 83,000 compounds, 20% with a hit somewhere; the sample as a whole holds those more often.
ASSAY_METRIC: growth (%)
Record the value in %, omitting the unit from your answer.

Here are 3 compounds together with their reported answers.
COc1ccc(NC(=S)NNc2ccc(-c3ccc(OC)c(OC)c3)nn2)cc1 : 100
Nc1cc(C(=O)O)[nH]c(=S)n1 : 105
CCOC(=O)c1c[nH]c2cc(OCC3CC3)c(OCC3CC3)cc2c1=O : 118

Need growth of CC[C@@](C)(NC(=O)[C@H](C)NC(=O)CCNC(=O)C(C)(C)NC(=O)[C@H](C)NC(=O)[C@@H]1CCCN1C(=O)[C@@](C)(CC)NC(=O)[C@H](Cc1ccccc1)NC(=O)C1CCCN1C(=O)C(C)(C)NC(=O)C1CCCN1C(=O)C(C)(C)NC(C)=O)C(=O)NCCC(=O)N[C@@H](CC(C)C)C(=O)NC(C)(C)C(=O)NCCC(=O)N[C@@H](CC(C)C)C(=O)NC(C)(C)C(=O)NC(C)(C)C(=O)N[C@@H](CC(C)C)C(=O)NCCC(=O)NCO (stereo partly drawn) , thanks. -96.5

Need growth of "CC(=O)CC(=O)SC1=NCCS1" , thanks. 109

----------
Test system: SF-268 CNS
ASSAY_REMARKS: NCI-60 one-dose screen, 48 h
MEASUREMENT_CONTEXT: 10 µM unless noted
This is part of a sample that, as a whole, favours compounds with a hit. Of some 83,000 tested, about 20% had one in any assay. Activity calls are given as the source filed them. The calls were made as follows: active = growth percent below 10; inactive = the rest.
Bench note: report the call from Yes = active, No = inactive

CC(C)(C)c1cc(C(=O)Nc2ccccc2C(=O)NCCN)cc(C(C)(C)C)c1 : No
C=C1C(=O)O[C@H]2[C@H]1CC/C(COC(=O)NCc1ccc(Cn3c(=O)sn(-c4ccc(Cl)cc4)c3=O)cc1)=C\CC[C@@]1(C)O[C@@H]21 : No
Cc1cc(-c2ccc(N=Nc3c(S(=O)(=O)O)cc4cc(S(=O)(=O)O)cc(N)c4c3O)c(C)c2)ccc1N=Nc1cc(S(=O)(=O)O)c2ccccc2c1O : No

Now consider the entry below.
Could you check what this test reported for "Cc1nc(-c2ccccc2)sc1CC#N" ? No
